# TESTED_ON: Bcl-2-like protein 1 (Homo sapiens)
# Sequence (Q07817 whole entry): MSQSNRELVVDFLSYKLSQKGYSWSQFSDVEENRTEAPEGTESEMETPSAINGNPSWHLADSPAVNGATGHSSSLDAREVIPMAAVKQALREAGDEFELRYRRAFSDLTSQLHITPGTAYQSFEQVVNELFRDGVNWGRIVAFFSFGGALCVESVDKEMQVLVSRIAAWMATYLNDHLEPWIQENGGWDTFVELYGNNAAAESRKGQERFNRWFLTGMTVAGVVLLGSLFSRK
# ASSAY_DETAILS: Biological Assay: BCL-XL Assay: In the assay 11 different concentrations of each compound (0.1 nM, 0.33 nM, 1.1 nM, 3.8 nM, 13 nM, 44 nM, 0.15 μM, 0.51 μM, 1.7 μM, 5.9 μM and 20 μM) were typically measured as duplicates in the same microtiter plate. For that, 100-fold concentrated DMSO solutions were prepared by serial dilutions (1:3.4) of a 2 mM stock solution in a clear, 384-well microtiter plate (Greiner Bio-One, Frickenhausen, Germany). From there, 50 nl were transferred in a dark test plate (Greiner Bio-One, Frickenhausen, Germany). The assay was initiated by addition of 2 μl of a 2,5-fold concentrated His-BCL-XL solution (usually for a 1 nM end concentration in 5 μl reaction volume) in aqueous assay buffer [50 mM Tris/HCl pH 7, 100 mM sodium chloride (NaCl), […] (KF), 0.005% Tween-20, 2 mM DTT, 0.1% bovine gamma globulin (BGG)] to the compounds in the assay plate. This was followed by a 10-minute incubation step at 22° C. for pre-equilibration of the putative complex between His-BCL-XL and the compounds. After that, 3 μl of a 1.67-fold concentrated solution (in assay buffer) consisting of Bad BH3-derived peptide (1 nM end concentration) and TR-FRET detection reagents [1.67 nM anti-His-Eu cryptate and 1.67 nM streptavidin-XL665 (both from Cisbio Bioassays, Codolet, France)], were added.
pIC50: −log10 of the molar value.
Give pIC50 for every item shown.

Query block: Given the molecule CCc1c2c(nn1C)COCCCCn1c(C(=O)O)c(CCCOc3ccc(F)c4ccccc34)c3ccc(F)c-2c31 , what is its reported pIC50?
Result block: < 4.70

Query block: Which pIC50 reading was recorded for the molecule CCc1c2c(nn1C)COCCCCn1c(C(=O)O)c(CCCOc3cccc4ccccc34)c3ccc(F)c-2c31 ?
Result block: < 4.70

Query block: Any idea what pIC50 was measured for Cc1c2c(nn1C)COCCCCn1c(C(=O)O)c(CCCOc3cccc4ccccc34)c3ccc(F)c-2c31 ?
Result block: < 4.70

Query block: Could you share which pIC50 value was measured for Cc1c2c(nn1C)COCCCCn1c(C(=O)O)c(CCCOc3cccc4cc(F)ccc34)c3ccc(F)c-2c31 ?
Result block: < 4.70

Query block: Reported pIC50, molecule CCc1nn(C)c2c1-c1c(F)ccc3c(CCCOc4cccc5cc(F)ccc45)c(C(=O)O)n(c13)CCCCOC2 : ____
Result block: < 4.70

Query block: What measured pIC50 goes with Cc1c2c(nn1C)C[N+](C)(C)CCCCn1c(C(=O)O)c(CCCOc3cccc4ccccc34)c3ccc(F)c-2c31 ?
Result block: < 4.70

Ref: ChEMBL document CHEMBL5729039
